- experiment.notes: organ radiation dose estimates, both OLINDA software versions
- Format: in vivo, human
- measurement.conditions: range of sex means from both software versions
measured.property: liver mean absorbed dose

molecule COC(=O)[C@@H](N)CC(=O)Nc1ccc2c(c1)Cc1cc([18F])ccc1-2 [[^18F]RP-115] , liver mean absorbed dose observed: 0.0392 to 0.0449 mGy/MBq
